System: VEGF
Assay: Evaluation of VEGF protein secretion level (Human VEGF ELISA) in ARPE-19 cell medium under hypoxic conditions
Assay type: cell-based
Conditions: ARPE-19 cells; pretreated 2 hours, 24 hours hypoxic conditions; secreted VEGF in medium supernatant by ELISA; concentration range reducing VEGF by 50% vs untreated control; read-out: IC50 VEGF
Protocol: ARPE-19 cells (Human retinal pigment epithelial cells, ATCC CRL-2302) were cultured in DMEM/F12 (LM002-08, Welgene) medium containing 10% fetal bovine serum (FBS, 16000-044, Gibco) in an incubator at 37°C with 5% carbon dioxide. When the cells grew sufficiently, they were cultured in experimental culture dishes for protein isolation and medium supernatant acquisition. Cells were detached from the culture dish using TrypLE™ Express (Gibco). […] The cells were counted and seeded into new culture dishes. […]
pIC50: −log10 of the molar value.
measured.quantity: pIC50

Sample answers from the record:
Request: Under VEGF: pIC50 value of [2H]c1c([2H])c([2H])c(-n2cc(-c3cc(F)cc(CNC(=O)c4ncnc5nc(C6CCC(F)(F)C6)[nH]c45)c3)cn2)c([2H])c1[2H] (stereo not shown) [Example 148] ?
Response: 6.00 to 7.00

Request: Give pIC50 (VEGF) of the following molecule: Cc1c(-c2cc(F)cc(CNC(=O)c3ncnc4nc(C5CCCC5)[nH]c34)c2)cnn1-c1ccc(F)cc1 [Example 147]
Response: 6.00 to 7.00

Next:
Request: Tell me reported pIC50 for O=C(Nc1cc(F)cc(-c2cnn(-c3ccc(F)cc3)c2)c1)c1ncnc2nc(C3CCCC3)[nH]c12 [Example 105] , tested with VEGF.
Response: < 5.00

Request: Give recorded pIC50 with VEGF for the following molecule: O=C(NCc1cc(F)cc(-c2cnn(-c3cccnc3)c2)c1)c1ncnc2nc(C3CCCC3)[nH]c12 [Example 31]
Response: > 7.00
